MEASURED_ON: His-BIR2-3 (125-356, C202A/C213G, XIAP) (Homo sapiens, UniProt P98170, C202A/C213G)
Construct: additions of His-BIR2-3 (125-356, C202A/C213G, XIAP), fluorescein labeled dimeric SMAC peptide
Sequence (P98170 125-356 C202A/C213G): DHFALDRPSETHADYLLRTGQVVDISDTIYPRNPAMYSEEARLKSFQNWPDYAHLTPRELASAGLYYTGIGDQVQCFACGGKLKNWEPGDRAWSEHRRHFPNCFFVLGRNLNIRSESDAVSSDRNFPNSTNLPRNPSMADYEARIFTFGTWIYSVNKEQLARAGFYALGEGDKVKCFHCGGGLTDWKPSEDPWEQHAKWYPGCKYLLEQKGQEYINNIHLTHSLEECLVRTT
ASSAY_REMARKS: XIAP-BIR2-3 Dimeric SMAC Peptide Homogeneous Time Resolved Fluorescence (HTRF) Assay
Format: binding
REPORTED_CONDITIONS: fluorescein labeled dimeric SMAC peptide
ENDPOINT_LABEL: IC50 (nM)

{"COMPOUND": "CN[C@@H](C)C(=O)N[C@H](C(=O)N1C[C@@H]2C[C@H]1C(=O)N[C@@H](Cc1ccc3ccccc3c1)C(=O)N[C@H](C(=O)O)Cc1ccc(cc1)OCc1cn(nn1)[C@H]1C[C@@H](C(=O)N[C@@H](Cc3ccc4ccccc4c3)C(=O)N[C@H](C(=O)NS(C)(=O)=O)Cc3ccc(cc3)OCCCCO2)N(C(=O)[C@@H](NC(=O)[C@H](C)NC)C(C)(C)C)C1)C(C)(C)C [Example 124]", "MEAS_VALUE": 13.6}
{"COMPOUND": "CN[C@@H](C)C(=O)N[C@H](C(=O)N1CC[C@H]2OCc3cn(nn3)CC[C@@H](C(=O)OC)NC(=O)[C@H](Cc3ccc4ccccc4c3)NC(=O)[C@@H]3[C@@H](CCN3C(=O)[C@@H](NC(=O)[C@H](C)NC)C(C)(C)C)OC/C=C/COc3ccc(cc3)C[C@@H](C(=O)O)NC(=O)[C@H](Cc3ccc4ccccc4c3)NC(=O)[C@H]21)C(C)(C)C [Example 17]", "MEAS_VALUE": 1.8}
{"COMPOUND": "CN[C@@H](C)C(=O)N[C@H](C(=O)N1C[C@@H]2C[C@H]1C(=O)N[C@@H](Cc1ccc3ccccc3c1)C(=O)N[C@H](C(=O)O)Cc1ccc(cc1)OC/C=C/CO[C@H]1C[C@@H](C(=O)N[C@@H](Cc3c[nH]c4ccccc34)C(=O)N[C@H](C(=O)O)Cc3ccc(cc3)C(=O)N2)N(C(=O)[C@@H](NC(=O)[C@H](C)NC)C(C)(C)C)C1)C(C)(C)C [Example 46]", "MEAS_VALUE": 5.3}
{"COMPOUND": "CN[C@@H](C)C(=O)N[C@H](C(=O)N[C@H]1C/C=C/CC[C@@H](C(=O)O)NC(=O)[C@H](Cc2ccc3ccccc3c2)NC(=O)[C@@H]2CN(CCNC(=O)CC[C@@H](C(=O)O)NC(=O)[C@H](Cc3ccc4ccccc4c3)NC1=O)CCN2C(=O)[C@@H](NC(=O)[C@H](C)NC)C(C)(C)C)C(C)(C)C [Example 80]", "MEAS_VALUE": 6.8}
{"COMPOUND": "CC[C@H](NC(=O)[C@H](C)NC)C(=O)N1C[C@@H]2C[C@H]1C(=O)N1Cc3ccccc3C[C@H]1C(=O)N[C@H](C(=O)O)Cc1ccc(cc1)C(=O)N[C@H]1C[C@@H](C(=O)N[C@@H](Cc3ccc4ccccc4c3)C(=O)N[C@H](C(=O)O)Cc3ccc(cc3)OC/C=C/CO2)N(C(=O)[C@@H](NC(=O)[C@H](C)NC)C(C)(C)C)C1 [Example 50]", "MEAS_VALUE": 56.7}
{"COMPOUND": "CN[C@@H](C)C(=O)N[C@H](C(=O)N1C[C@@H]2C[C@H]1C(=O)N[C@@H](Cc1ccc3ccccc3c1)C(=O)N[C@H](C(=O)O)Cc1ccc(cc1)C(=O)N[C@H]1C[C@@H](C(=O)N[C@@H](Cc3ccc4ccccc4c3)C(=O)N[C@H](C(=O)O)Cc3ccc(cc3)OC/C=C/CO2)N(C(=O)[C@@H](NC(=O)[C@H](C)NC)C(C)(C)C)C1)C(C)O (some centres unmarked) [Example 65]", "MEAS_VALUE": 1.9}
{"COMPOUND": "CN[C@@H](C)C(=O)N[C@H](C(=O)N1CC[C@H]2OCc3cn(nn3)-c3ccc(cc3)C[C@@H](C(=O)O)NC(=O)[C@H](Cc3ccc4ccccc4c3)NC(=O)[C@@H]3C[C@@H](CN3C(=O)[C@@H](NC(=O)[C@H](C)NC)C(C)(C)C)OC/C=C/COc3ccc(cc3)C[C@@H](C(=O)O)NC(=O)[C@H](Cc3ccc4ccccc4c3)NC(=O)[C@H]21)C(C)(C)C [Example 12]", "MEAS_VALUE": 1.2}
{"COMPOUND": "CN[C@@H](C)C(=O)N[C@H](C(=O)N1C[C@@H]2C[C@H]1C(=O)N[C@@H](Cc1ccc3ccccc3c1)C(=O)N[C@H](C(=O)O)Cc1ccc(cc1)OC/C=C/C[C@H]1C[C@@H](C(=O)N[C@@H](Cc3ccc4ccccc4c3)C(=O)N[C@H](C(=O)NS(=O)(=O)C3CC3)Cc3ccc(cc3)OCc3cnnn32)N(C(=O)[C@@H](NC(=O)[C@H](C)NC)C(C)(C)C)C1)C(C)(C)C [Example 102]", "MEAS_VALUE": 35}
{"COMPOUND": "CN[C@@H](C)C(=O)N[C@H](C(=O)N1CC[C@H]2OC/C=C/COc3ccc(cc3)C[C@@H](C(=O)O)NC(=O)[C@H](Cc3ccc4ccccc4c3)NC(=O)[C@@H]3[C@@H](CCN3C(=O)[C@@H](NC(=O)[C@H](C)NC)C(C)(C)C)OCc3cn(nn3)[C@H](C(=O)O)CCNC(=O)[C@H](Cc3ccc4ccccc4c3)NC(=O)[C@H]21)C(C)(C)C [Example 14]", "MEAS_VALUE": 3.7}
{"COMPOUND": "CN[C@@H](C)C(=O)N[C@H](C(=O)N1CCC2[C@H]1C(=O)N[C@@H](Cc1ccc3ccccc3c1)C(=O)N[C@H](C(=O)O)Cc1ccc(cc1)OC/C=C/CO[C@H]1C[C@@H](C(=O)N[C@@H](Cc3ccc4ccccc4c3)C(=O)N[C@H](C(=O)O)Cc3ccc(cc3)OCc3cn2nn3)N(C(=O)[C@@H](NC(=O)[C@H](C)NC)C(C)(C)C)C1)C(C)(C)C (some centres unmarked) [Example 13]", "MEAS_VALUE": 12.4}
{"COMPOUND": "CN[C@@H](C)C(=O)N[C@H](C(=O)N1C[C@@H]2C[C@H]1C(=O)N[C@@H](Cc1ccc3ccccc3c1)C(=O)N[C@H](C(=O)O)CCC(=O)N[C@H]1C[C@@H](C(=O)N[C@@H](Cc3ccc4ccccc4c3)C(=O)N[C@H](C(=O)O)Cc3ccc(cc3)OC/C=C/CO2)N(C(=O)[C@@H](NC(=O)[C@H](C)NC)C(C)(C)C)C1)[C@H](C)O [Example 57]", "MEAS_VALUE": 12.1}

---

MEASURED_ON: His-BIR2-3 (125-356, C202A/C213G, XIAP) (Homo sapiens, UniProt P98170, C202A/C213G)
Construct: additions of His-BIR2-3 (125-356, C202A/C213G, XIAP), fluorescein labeled dimeric SMAC peptide
ASSAY_REMARKS: XIAP-BIR2-3 Dimeric SMAC Peptide Homogeneous Time Resolved Fluorescence (HTRF) Assay
REPORTED_CONDITIONS: fluorescein labeled dimeric SMAC peptide
pIC50: −log10 of the molar value.

{"COMPOUND": "CN[C@@H](C)C(=O)N[C@H](C(=O)N1C[C@@H]2C[C@H]1C(=O)N[C@@H](Cc1ccc3ccccc3c1)C(=O)N[C@H](C(=O)O)Cc1ccc(cc1)C(=O)N[C@H]1C[C@@H](C(=O)N[C@@H](Cc3ccc4ccccc4c3)C(=O)N[C@H](C(=O)O)Cc3ccc(cc3)OC/C=C/CO2)N(C(=O)[C@@H](NC(=O)[C@H](C)NC)C(C)(C)C)C1)C(C)C [Example 75]", "MEASURED_ON": "His-BIR2-3 (125-356, C202A/C213G, XIAP) (Homo sapiens, UniProt P98170, C202A/C213G)", "pIC50": 8.77}
{"COMPOUND": "CN[C@@H](C)C(=O)N[C@@H](Cc1ccccc1)C(=O)N1C[C@@H]2C[C@H]1C(=O)N[C@@H](Cc1ccc3ccccc3c1)C(=O)N[C@H](C(=O)O)Cc1ccc(cc1)C(=O)N[C@H]1C[C@@H](C(=O)N[C@@H](Cc3ccc4ccccc4c3)C(=O)N[C@H](C(=O)O)Cc3ccc(cc3)OC/C=C/CO2)N(C(=O)[C@@H](NC(=O)[C@H](C)NC)C(C)(C)C)C1 [Example 70]", "MEASURED_ON": "His-BIR2-3 (125-356, C202A/C213G, XIAP) (Homo sapiens, UniProt P98170, C202A/C213G)", "pIC50": 8.70}
{"COMPOUND": "CN[C@@H](C)C(=O)NC(C(=O)N1C[C@H]2C/C=C/COc3ccc(cc3)C[C@@H](c3n[nH]c(=O)o3)NC(=O)C(Cc3ccc4ccccc4c3)NC(=O)[C@@H]3C[C@@H](CN3C(=O)[C@@H](NC(=O)[C@H](C)NC)C(C)(C)C)n3cc(nn3)COc3ccc(cc3)C[C@@H](C(=O)O)NC(=O)[C@H](Cc3ccc4ccccc4c3)NC(=O)[C@@H]1C2)C(C)(C)C (stereo partly drawn) [Example 91]", "MEASURED_ON": "His-BIR2-3 (125-356, C202A/C213G, XIAP) (Homo sapiens, UniProt P98170, C202A/C213G)", "pIC50": 9.40}

Ref: patent US20140135270A1
